System: E. coli AG100
Experiment: Broth microdilution MIC in CAMHB
Assay type: cell-based
Settings: Escherichia coli; E. coli AG100 (wild-type parent); MHB; read-out: Minimum Inhibitory Concentration, E. coli AG100
Source text: Example III: In Vitro Antibacterial Assays To determine the ability of test compounds to inhibit the growth of bacterial strains, classic cell based broth microdilution minimum inhibitory concentration (MIC) assays were employed. […] Briefly, cryo-preserved bacterial cultures of challenge strains are streaked for isolation on appropriate agar medium, in this case cation-adjusted Mueller Hinton agar. […] The MIC values are read visually as the lowest concentration well with no bacterial growth.
measuredMetric: MIC

Past entries and their recorded results:
# compound, MIC
records = [
    ("CCN1CCN(C(=O)N[C@H](C(=O)N[C@H]2Cc3cccc(C(=O)O)c3OB2O)c2ccc(C(=O)O)c(F)c2)C(=O)C1=O (single isomer, unassigned)", "32 to 64 µg/mL"),
    ("NS(=O)(=O)c1cccc(C(NC(=O)N2CCN(CCF)C(=O)C2=O)C(=O)N[C@H]2Cc3cccc(C(=O)O)c3OB2O)c1 (stereo partly drawn)", "32 to 64 µg/mL"),
    ("NCCN1CCN(C(=O)NC(C(=O)N[C@H]2Cc3cccc(C(=O)O)c3OB2O)c2cc(F)c(O)cc2Cl)C(=O)C1=O (stereo partly drawn)", "> 128 µg/mL"),
]

Lab note: CCN1CCN(C(=O)NC(C(=O)N[C@H]2Cc3cccc(C(=O)O)c3OB2O)c2cc(O)cc(O)c2)C(=O)C1=O (mixture of isomers) gave MIC of 8 to 16 µg/mL

Lab note: NCCN1CCN(C(=O)N[C@H](C(=O)N[C@H]2Cc3cccc(C(=O)O)c3OB2O)c2ccc(O)c([N+](=O)[O-])c2)C(=O)C1=O (single isomer, unassigned) gave MIC of > 128 µg/mL

Lab note: NCCN1CCN(C(=O)N[C@@H](C(=O)N[C@H]2Cc3cccc(C(=O)O)c3OB2O)c2cc(F)c(O)c(F)c2)C(=O)C1=O (single isomer, unassigned) gave MIC of 8 to 16 µg/mL

Lab note: CCN1CCN(C(=O)N[C@@H](C(=O)N[C@H]2Cc3cccc(C(=O)O)c3OB2O)c2ccc(C(=O)O)cc2Cl)C(=O)C1=O (single isomer, unassigned) gave MIC of 32 to 64 µg/mL

Lab note: CCN1CCN(C(=O)NC(C(=O)N[C@H]2Cc3cccc(C(=O)O)c3OB2O)c2ccc(C(=O)O)c([N+](=O)[O-])c2)C(=O)C1=O (stereo partly drawn) gave MIC of > 128 µg/mL

Lab note: NCCN1CCN(C(=O)N[C@@H](C(=O)N[C@H]2Cc3cccc(C(=O)O)c3OB2O)c2ccc(O)c([N+](=O)[O-])c2)C(=O)C1=O (single isomer, unassigned) gave MIC of > 128 µg/mL

Lab note: CCN1CCN(C(=O)NC(C(=O)N[C@H]2Cc3ccc(SCc4ccc(O)cc4)c(C(=O)O)c3OB2O)c2csc(N)n2)C(=O)C1=O (stereo partly drawn) gave MIC of > 128 µg/mL

Lab note: NCCCN1CCN(C(=O)N[C@@H](C(=O)N[C@H]2Cc3ccc(F)c(C(=O)O)c3OB2O)c2ncc(O)cc2F)C(=O)C1=O gave MIC of 8 to 16 µg/mL

Lab note: O=C(NC(C(=O)N[C@H]1Cc2ccc(F)c(C(=O)O)c2OB1O)c1ncc(O)cc1F)c1ccnc(F)c1 (stereo partly drawn) gave MIC of > 128 µg/mL
